B1: Subtilisin-chymotrypsin inhibitor-2A, P01053 (parent)
chain: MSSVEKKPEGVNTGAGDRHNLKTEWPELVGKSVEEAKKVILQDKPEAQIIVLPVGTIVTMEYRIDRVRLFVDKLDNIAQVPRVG

Variants of: B1
Details: Hordeum vulgare; pH 3; Thermal; DSC; glycine-HCl 10 mM; structure 2CI2; whole UniProt chain shown
Measured property: unfolding enthalpy (calorimetric) (kcal/mol)

[[record]]
mutation_id = "S32G E34A E35A"
measured_property = "unfolding enthalpy (calorimetric)"
reported = 55

[[record]]
mutation_id = "E34A E35A"
measured_property = "unfolding enthalpy (calorimetric)"
reported = 58

[[record]]
mutation_id = "S32A"
measured_property = "unfolding enthalpy (calorimetric)"
reported = 53

[[record]]
mutation_id = "S32A E34A E35A"
measured_property = "unfolding enthalpy (calorimetric)"
reported = 54


The origin of these recorded values is FireProtDB (doi:10.1093/protein/7.6.777).
